All figures here come from patent US20240217953A1.

- measurementProtocol: Pharmacokinetic study in rats
- Format: in vivo
- assaySetup: rat; male SD rats, oral intragastric administration, 10 mg/kg, plasma
measurementType: Cmax
The number alone won't do; follow it with the unit.

If you can, please state the reported Cmax value of COc1cc(C)c2[nH]ccc2c1CN1CCC2CC1(c1ccc(C(=O)O)cc1)CCN2CC(F)(F)F (stereo not shown) .
3.25 µM

---

- measurementProtocol: Pharmacokinetic study in rats
- Type: in vivo
- assaySetup: rat; male SD rats, oral intragastric administration, 10 mg/kg, plasma
measurementType: Tmax (min)
Give just the numeric value; min need not be written.

If you can, please state the reported Tmax value of COc1cc(C)c2[nH]ccc2c1CN1CCC2CC1(c1ccc(C(=O)O)cc1)CCN2CC(F)(F)F (stereo not shown) .
30
